- PROTOCOL_TEXT: yeast display, Sf9 membrane polyspecificity reagent, FACS + sequencing; frameworks hold sequencing errors
MEASURE: polyreactivity (PSR sort gate)

sequence_entry=QVQLVESGGGLVQAGGSLRLSCAASGSISYQNAMGWYRQATGKERELVAAISGDGDSMYYADSVKGRFTISRDNAKNTVYLQMNSLKPEDTAVYYCAAEPNVYFSVFVLFPSDYWGQGTQVTVSS value="low polyreactivity"
sequence_entry=QVQLVESGGGLVQAGGSLRLSCAASGFTFGVYAMGWYRQAPGKERELVAAITATGGSTYYADSVKGRFTISRDNAKNTVYLQMNSLKPADTEVYYCAKPDYYRMGYWVQGTQVTVSS value="low polyreactivity"
sequence_entry=QGQLVESGGGLVQAGGSLRLSCAASGFTFPHYAMGWYRQAPGKERELVAAISWSGGSTFSADSVKGRFTISRDTAKNNVYLQMNSLKPADTAVYYCAARSRSWTPYYYWGQGTQVTVSS value="high polyreactivity"
sequence_entry=QVQLVESGGGLVQAGGSLRLSCAASGSTFGWYTMGWYRQAPGKERELVAAMTSRGTRTSYADSVKGRFTISRDNAKNTVYLQMNSLKPEDTAVYYCAARVFRGLGEYYWGQGTQVTVSS value="high polyreactivity"
sequence_entry=QVQLVESGGGLVQAGGSLRLSCAASGLIFKVYAMGWYRQAPGKERELVAAITYSGGSTDYADSVKGRFTISRDNAKNTVYLQMNSLKPEDTAVYYCNVEKVGHVNSYGYDYWGQGTQVTVSS value="low polyreactivity"

---

- PROTOCOL_TEXT: yeast display, Sf9 membrane polyspecificity reagent, FACS + sequencing; frameworks hold sequencing errors
MEASURE: polyreactivity (PSR sort gate)

sequence_entry=QDQLVESGGGLVQAGGSLRLSFAASVSTFTTYAKGWYRQAPGKERELVAAIDWSDGSITYYADSVKGRFTISRDNAKNTVYLQMNSLKPEDTAVYYCAKDNSQYGWGYDYWVQGTQVTVSS measure="polyreactivity (PSR sort gate)" value="low polyreactivity"
sequence_entry=QVQLVESGGGLVQAGGSLRLSCAATGRTLKYNAMGRYRKAPGKERELVAAISYSGSSTYYADSVKGRFTISRDNAKNTVYLQMHSLKPEDTAVYYCNTARPTAAYDYWGQGTQVTVSS measure="polyreactivity (PSR sort gate)" value="low polyreactivity"
sequence_entry=QVQLVESGGGLVQAGGSLRFSCAASRSIFFWYTMGWYRQAPGKYRELVATITGSGSSTTYADSVKGRFTISRDNAKNTVYLQMNSLKPEDTAVYYCAAADIIDHSFPYDYWGQGTQVTVSS measure="polyreactivity (PSR sort gate)" value="low polyreactivity"
sequence_entry=QVQLVESGGGLVQAGGSLRLSCAASGFIFSRYDMGWYRQAPGKERELVAAIDWSGDSTYYADSVKGRFTISRDNAKHTVYLQMNSLQPEDTAVYYCAAYYYWGQGTQVTVSS measure="polyreactivity (PSR sort gate)" value="low polyreactivity"
sequence_entry=QVHLVESGGGLVQAGGSLRLSCAASGSIFAWYGMGWYRQAPGKERELVAAISTAGSTNYADSVKGRFTISRDNAKNTVYLQMNSLKPEDTAVYYCAADWGGLWFWYEYWGQCTQVTVSS measure="polyreactivity (PSR sort gate)" value="low polyreactivity"
sequence_entry=QVQLGESAGGLVQAGGSLRLSCAATGRTFRWYTMGWYRQAPGKERELVAGIRSTGGSTYYADSVKGRFTISRDNAKNTVYLQMNSLKPEDTEVYYCAIVTLTSRYASYYYWGQGTQVTVSS measure="polyreactivity (PSR sort gate)" value="high polyreactivity"
sequence_entry=QVQLVESGGGLVLAGGSLRLSCAASGSTFYAHAMGWYRQARGKERELVAAITSGGSTNYADSVKGRFTISRDNAKNTVNLQINSLKPEDTAVYYCATPVNRERHAEDYWGQGTQVTVSS measure="polyreactivity (PSR sort gate)" value="low polyreactivity"
sequence_entry=QVPLVESGGGLVQAGGILRLSCAASGRTFRYNVMGCYRQAPGKERELVASISRISGSTYYADSVKGRFTISRDNAKNTVYLQMNSLKPEDTAVYYCAATVKLKHYPYVGFGYWGQGTQVTVSS measure="polyreactivity (PSR sort gate)" value="high polyreactivity"
sequence_entry=HVQLVESGGGLVQAGGSLRLSCAASGRIFLRYAMGWYRQAPGKERELVAVISSGGSTYYADSVKGRFTISRDNAKNTVYLQMHSLKPEDSAVYYCAARRHDSRYQYDYWGQGTQVSVSS measure="polyreactivity (PSR sort gate)" value="high polyreactivity"
sequence_entry=QVQLVESGGGLVQAGGSLRLICAASGSTFGAYAMGWYRQAPGKERELVAAISRSGGTTYYADSVKGRFTISRDNSKNTVYLQMNSLKPEDTEVYYCAADWLNSVPYNYWGQGTLVTVSS measure="polyreactivity (PSR sort gate)" value="low polyreactivity"
sequence_entry=QVQLVESGGGLVQAGGSLRLSCAASGGTFFTNAMGWYRQAPGKERELVAVITGSGGRTYYADSVKGRFTISRDNAKNTVYLQMNSLKPEDTAVYYCAARGYSWGQGTQVTVSS measure="polyreactivity (PSR sort gate)" value="high polyreactivity"
sequence_entry=QVQLVESGGGLVQAGGSLRLSCAASGYTFGSYAMGWYRPAPGKERELVAAITPGGSTYYADSVKGRFTISRDNAKNTVYLQMNSLKPEDTAVYYCNRATRYWKAYYWFKTMDYWGQGTQVTVSS measure="polyreactivity (PSR sort gate)" value="high polyreactivity"
sequence_entry=QVQLVESGGGLVQAGGSLRLSCAASGSIFSRYAMGWYRQAPGNERELVAAITSGGSTKYADSVKGRFTISRDNAKNTVYLQMNSLKPEDTAVYYCNADRRFRKYPFGYWGQGTQVTVSS measure="polyreactivity (PSR sort gate)" value="high polyreactivity"
sequence_entry=QVQIVESGGGLVQAGGSLRLSCAASGRIIRDYDMGWYRQAPGKERELVAAITFRSGSTYYADSEKGRFTISRDNAKNTVYLLMNSLKPEDTAVYYCADANSILLFDSWGQGTQVTLSS measure="polyreactivity (PSR sort gate)" value="low polyreactivity"
sequence_entry=QVQLVETGGGLVQAGGSLRLSCAASGNHFSTYTMGGYRQAPGKERELVAAISTSGTSTYYADSVKGRFTISRDNAKNTVYLQMNSLKPEDTAVYYCAASYLRSSQRMDYWGQGTQVTVSS measure="polyreactivity (PSR sort gate)" value="low polyreactivity"
sequence_entry=QVQLVESGGGLVQAGGSLRLSCAASGGPFYTYTMGWYRQAPGKERELVAAISFSDASTYYADSVKGRFTISRDNAKNTVFLQMNSLKPEDTGVYYCNAGVLQWVYYPFDYWGQGTQVTVSS measure="polyreactivity (PSR sort gate)" value="low polyreactivity"
sequence_entry=QVQLVESGGGLVQARGSLRLSCAASGSIFFPYAMGWYRQAPGKERELVAAIRYSAGSTYYADSVKGRFTISRDNAKNTVYLQMNSLKPEDTAVYYCNAGSSCWVSRIGYDYWGEGTQVTVSS measure="polyreactivity (PSR sort gate)" value="high polyreactivity"
sequence_entry=QVQLVESGGGLVQAGGSLRLSCAASGFTFYDYAMGWYRQAPGKERELVAAISSGTSTYYADSVKGRFTISRDNAKNTVYLQMNSLKPEDTAVYYCAAAGNRPWSITPVRKRYGYNYWGQGTQVTVSS measure="polyreactivity (PSR sort gate)" value="high polyreactivity"
sequence_entry=QVQLVESGGGLVQAGCSLRLSCAASGSSFYTYTMGWYRQAPGKERELVAAITWSGGSTYYADSVKGRFTISRDNAKNTVYLQMNSLKPEDTAVYFCNADQDYQAARPSGMDYWGQGTQVTVSS measure="polyreactivity (PSR sort gate)" value="low polyreactivity"
sequence_entry=QVQLVESGGGLVQAGGSLRLICAASGFTFLVNAMGWYRQAPGKERELVAAISSGGSTYYADSVKGRFTISRDNAKNTVYLQMNSLKPEDTAVYYCAAPTDFLFWEFDYWGQGTQVTVSS measure="polyreactivity (PSR sort gate)" value="low polyreactivity"
sequence_entry=QVQLVESGGGLVQAGGSLRLSCAASGRTVGWYAMGWYRQAPGKERELVAAITWRGGSTYYADSVKGRFTISRDNAKNTVYLQMTSLKPEDTAVYYCAAAAEKRSYYWGQGTQVTVSS measure="polyreactivity (PSR sort gate)" value="high polyreactivity"

---

- PROTOCOL_TEXT: yeast display, Sf9 membrane polyspecificity reagent, FACS + sequencing; frameworks hold sequencing errors
MEASURE: polyreactivity (PSR sort gate)

sequence_entry=QVQLVESGGGLVQAGGSLRLSCAASGFIFYVKAMGWYRKAPGKERELVASITNGGSTTYADSVKGRFTISRDNAKNTDDLQMNSLKPEDTAVYYCHASGLDFSYFDEFNYWGQGTQVTVSS measure="polyreactivity (PSR sort gate)" value="low polyreactivity"
sequence_entry=QVQLVESGGGLVQAGGSLRLSCAASGYTFKAYAMGWYRQAPGKERELVAAISWSGARTYYADSVKGRFTISRDNAKNTVYLQMNSLKPEDTAVYYCAASNAVYAGRSYRDEFWGQGTQVTVSS measure="polyreactivity (PSR sort gate)" value="high polyreactivity"
sequence_entry=QVQLVESGGGLVQAGGSLRLSCAASGRIFFTYTMGWYRQAPGKERELVAAITGGGARTYYADSVKGRFTISRDNSKNTVYLQMNSLKPEDTAVYYCAKGWQRIGFYYWGQGTQVTVSS measure="polyreactivity (PSR sort gate)" value="high polyreactivity"
sequence_entry=QVQLVESGGGLVQAGGSLRLSCAASGSNLVQNAMGWYRQAPGKERELVAAINWSGASTYYADSVKGRFTISRDNAKNTVYLQMNSLKPEDTAVYYCATVTLFFTDYYSWADVYTEYDYWGQGTQVTVSS measure="polyreactivity (PSR sort gate)" value="low polyreactivity"
sequence_entry=QDQLVESGGGLVQAGGSLRLSCAASGRIFNQYGMGWYRQAPGKERELVAAIRSGDSTNYADSVKGRFTISRDNAKNTVYLQMNSLKPEDTAVYYCARDRPGDYAGYDYWGQGTQVTVSS measure="polyreactivity (PSR sort gate)" value="low polyreactivity"
